Target under test: c-kit (Homo sapiens, UniProt P10721)
Construct: MO7e (human megakaryocytic leukemia cell line) which had been arrested for 20 hr; endogenous in cells; host or cells: MO7e human megakaryocytic leukemia cell line
Sequence (P10721 26-976): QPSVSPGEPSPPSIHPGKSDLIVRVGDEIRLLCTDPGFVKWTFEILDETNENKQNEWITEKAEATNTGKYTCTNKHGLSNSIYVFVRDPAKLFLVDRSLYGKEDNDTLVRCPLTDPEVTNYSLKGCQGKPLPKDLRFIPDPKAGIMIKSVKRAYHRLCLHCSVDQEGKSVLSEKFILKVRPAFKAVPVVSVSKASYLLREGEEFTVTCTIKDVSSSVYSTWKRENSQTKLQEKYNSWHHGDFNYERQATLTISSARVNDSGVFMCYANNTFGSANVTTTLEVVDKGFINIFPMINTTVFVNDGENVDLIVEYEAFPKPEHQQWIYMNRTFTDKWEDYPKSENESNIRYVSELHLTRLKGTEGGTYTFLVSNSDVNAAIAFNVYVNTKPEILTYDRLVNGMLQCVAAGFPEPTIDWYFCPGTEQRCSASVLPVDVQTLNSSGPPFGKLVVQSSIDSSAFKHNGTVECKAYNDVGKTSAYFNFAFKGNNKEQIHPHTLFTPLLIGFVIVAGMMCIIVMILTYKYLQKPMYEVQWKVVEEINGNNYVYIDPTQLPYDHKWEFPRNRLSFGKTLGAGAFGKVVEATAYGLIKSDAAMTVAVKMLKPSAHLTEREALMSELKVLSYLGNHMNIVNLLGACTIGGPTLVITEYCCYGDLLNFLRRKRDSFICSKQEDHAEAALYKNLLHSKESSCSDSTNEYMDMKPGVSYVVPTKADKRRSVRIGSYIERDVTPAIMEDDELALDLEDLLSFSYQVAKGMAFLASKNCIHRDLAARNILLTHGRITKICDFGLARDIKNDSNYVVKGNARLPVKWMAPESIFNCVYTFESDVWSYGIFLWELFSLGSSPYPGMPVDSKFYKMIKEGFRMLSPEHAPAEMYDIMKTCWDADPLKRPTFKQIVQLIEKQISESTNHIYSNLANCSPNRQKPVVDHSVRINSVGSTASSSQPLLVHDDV
Protocol text: Inhibitory activity against c-kit autophosphorylation (MO7e cells, h-SCF)
Assay type: cell-based
Experimental conditions: MO7e cells, h-SCF 50 ng/ml; read-out: c-kit IC50
Decide using IC50 alone. Strictly below 0.1 µM: 1.0. Equal to or above 0.1 µM: 0.0.

Task: Dear reviewer, please state whether COc1cc2nccc(Oc3ccc(NC(=O)OCCCOc4ccccc4F)c(C)c3C)c2cc1OC has IC50 strictly beneath 0.1 µM.
Result: 1.0

Task: Dear reviewer, please state whether COc1cc2ncnc(Oc3ccc(NC(=O)OCCCSc4ccccn4)cc3)c2cc1OC has IC50 strictly beneath 0.1 µM.
Result: 1.0

Task: Dear reviewer, please state whether CCCCOC(=O)Nc1ccc(Oc2ncnc3cc(OC)c(OC)cc23)cc1 has IC50 strictly beneath 0.1 µM.
Result: 1.0

Task: Dear reviewer, please state whether COc1cccc(OCCCOC(=O)Nc2ccc(Oc3ncnc4cc(OC)c(OC)cc34)cc2)c1 [Example 164] has IC50 strictly beneath 0.1 µM.
Result: 1.0

Task: Dear reviewer, please state whether COc1cc2nccc(Oc3ccc(NC(=O)OCc4ccccc4C)cc3)c2cc1OC has IC50 strictly beneath 0.1 µM.
Result: 0.0

Task: Dear reviewer, please state whether COc1cc2nccc(Oc3ccc(NC(=O)OCC4CC4)c(C)c3C)c2cc1OC has IC50 strictly beneath 0.1 µM.
Result: 1.0

Task: Dear reviewer, please state whether COc1cc2nccc(Oc3ccc(NC(=O)OCCCSc4ccc(Cl)cc4C)c(C)c3C)c2cc1OC has IC50 strictly beneath 0.1 µM.
Result: 0.0

Task: Dear reviewer, please state whether COc1cc2nccc(Oc3ccc(NC(=O)OCCN4CCCCC4)cc3)c2cc1OC has IC50 strictly beneath 0.1 µM.
Result: 0.0

###

Field: IC50. Provide a value for each of the compounds that follow.
Target under test: c-kit (Homo sapiens, UniProt P10721)
Construct: MO7e (human megakaryocytic leukemia cell line) which had been arrested for 20 hr; endogenous in cells; host or cells: MO7e human megakaryocytic leukemia cell line
Protocol text: Inhibitory activity against c-kit autophosphorylation (MO7e cells, h-SCF)
Format: cell-based
Experimental conditions: MO7e cells, h-SCF 50 ng/ml; read-out: c-kit IC50
Numeric only. Scale: nM

Task: Give the value of IC50 reported for the following: COc1cc2ncnc(Oc3ccc(NC(=O)OCc4ccc(C(F)(F)F)cc4)cc3)c2cc1OC [Example 24]
Result: 129

Task: Give the value of IC50 reported for the following: COc1cc2nccc(Oc3cc(C)c(NC(=O)OC4CCc5ccccc5C4)cc3C)c2cc1OC (centres unmarked) [Example 292]
Result: 262

Task: Give the value of IC50 reported for the following: CCCOC(=O)Nc1ccc(Oc2ccnc3cc(OC)c(OC)cc23)cc1 [Example 247]
Result: 40

Task: Give the value of IC50 reported for the following: COc1cc2nccc(Oc3ccc(NC(=O)SCc4ccc(C)cc4)cc3)c2cc1OC [Example 107]
Result: 372

Task: Give the value of IC50 reported for the following: COc1cc2nccc(Oc3ccc(NC(=O)OC(C)c4cccc(F)c4)cc3)c2cc1OC (centres unmarked) [Example 97]
Result: 254

Task: Give the value of IC50 reported for the following: COc1cc2ncnc(Oc3ccc(NC(=O)OCc4ccccc4C)c(Cl)c3)c2cc1OC [Example 320]
Result: 596

Task: Give the value of IC50 reported for the following: COc1cc2nccc(Oc3ccc(NC(=O)OCCOc4ccccc4F)c(C)c3C)c2cc1OC [Example 204]
Result: 79

Task: Give the value of IC50 reported for the following: COc1cc2nccc(Oc3ccc(NC(=O)OCCCOc4ccccc4OC)c(C)c3C)c2cc1OC [Example 158]
Result: 107

Task: Give the value of IC50 reported for the following: COc1cc2nccc(Oc3cc(C)c(NC(=O)OCC4CCCC4)cc3C)c2cc1OC [Example 395]
Result: 226

Task: Give the value of IC50 reported for the following: CCC(OC(=O)Nc1ccc(Oc2ccnc3cc(OC)c(OC)cc23)cc1)c1ccccc1 (centres unmarked) [Example 263]
Result: 329

Task: Give the value of IC50 reported for the following: COc1cc2nccc(Oc3ccc(NC(=O)OC(C)c4cccc(F)c4)c(C)c3C)c2cc1OC (centres unmarked) [Example 98]
Result: 152

Task: Give the value of IC50 reported for the following: CCCOC(=O)Nc1ccc(Oc2ncnc3cc(OC)c(OC)cc23)cc1 [Example 314]
Result: 32

Task: Give the value of IC50 reported for the following: COc1cc2ncnc(Oc3ccc(NC(=O)OCCCSc4ccc(C)cc4)cc3)c2cc1OC [Example 40]
Result: 55

Task: Give the value of IC50 reported for the following: COc1cc2nccc(Oc3ccc(NC(=O)OCC4CCCC4)cc3)c2cc1OC [Example 394]
Result: 133

Task: Give the value of IC50 reported for the following: CCCCC(CCCC)OC(=O)Nc1ccc(Oc2ccnc3cc(OC)c(OC)cc23)c(C)c1C [Example 370]
Result: 585

Task: Give the value of IC50 reported for the following: COc1cc2nccc(Oc3ccc(NC(=O)OC(C)c4cc(F)c(F)cc4F)c(C)c3C)c2cc1OC (centres unmarked) [Example 93]
Result: 601

###

Field: inhibition at 1 µM. Provide a value for each of the compounds that follow.
Target under test: c-kit (Homo sapiens, UniProt P10721)
Construct: MO7e (human megakaryocytic leukemia cell line) which had been arrested for 20 hr; endogenous in cells; host or cells: MO7e human megakaryocytic leukemia cell line
Protocol text: Inhibitory activity against c-kit autophosphorylation (MO7e cells, h-SCF)
Type: cell-based
Experimental conditions: Mo7e, figure in parentheses in −( ); at 1000 nM
Numeric only. Scale: %

Task: Give the value of inhibition at 1 µM reported for the following: COc1cc2nccc(Oc3ccc(NC(=S)NC(=O)c4ccsc4)c(F)c3)c2cc1OC
Result: 29

Task: Give the value of inhibition at 1 µM reported for the following: COc1ccc(C(=O)NC(=S)Nc2ccc(Oc3ccnc4cc(OC)c(OC)cc34)c(Cl)c2)c(OC)c1
Result: 31

Task: Give the value of inhibition at 1 µM reported for the following: COc1cc2nccc(Oc3ccc(NC(=S)NC(=O)c4ccc(C)cc4)c(Cl)c3)c2cc1OC
Result: 11

Task: Give the value of inhibition at 1 µM reported for the following: CCCCc1ccc(C(=O)NC(=S)Nc2ccc(Oc3ccnc4cc(OC)c(OC)cc34)cc2F)cc1
Result: 23

Task: Give the value of inhibition at 1 µM reported for the following: COc1cc2nccc(Oc3ccc(NC(=S)NC(=O)c4ccc(F)cc4)cc3Cl)c2cc1OC
Result: 25

Task: Give the value of inhibition at 1 µM reported for the following: COc1cc2nccc(Oc3cc(C)c(NCCOc4c(C)cccc4C)cc3C)c2cc1OC
Result: 20

Task: Give the value of inhibition at 1 µM reported for the following: COc1cc2nccc(Oc3ccc(NCCOc4c(C)cccc4C)c(C)c3C)c2cc1OC
Result: 23

Task: Give the value of inhibition at 1 µM reported for the following: COc1cc2nccc(Oc3ccc(NC(=S)NC(=O)c4cccc(Cl)c4)c(C)c3C)c2cc1OC
Result: 30

###

Target under test: PDGF-Ra (Homo sapiens, UniProt P16234)
Construct: host or cells: G-292 human osteosarcoma cells
Sequence (P16234 24-1089): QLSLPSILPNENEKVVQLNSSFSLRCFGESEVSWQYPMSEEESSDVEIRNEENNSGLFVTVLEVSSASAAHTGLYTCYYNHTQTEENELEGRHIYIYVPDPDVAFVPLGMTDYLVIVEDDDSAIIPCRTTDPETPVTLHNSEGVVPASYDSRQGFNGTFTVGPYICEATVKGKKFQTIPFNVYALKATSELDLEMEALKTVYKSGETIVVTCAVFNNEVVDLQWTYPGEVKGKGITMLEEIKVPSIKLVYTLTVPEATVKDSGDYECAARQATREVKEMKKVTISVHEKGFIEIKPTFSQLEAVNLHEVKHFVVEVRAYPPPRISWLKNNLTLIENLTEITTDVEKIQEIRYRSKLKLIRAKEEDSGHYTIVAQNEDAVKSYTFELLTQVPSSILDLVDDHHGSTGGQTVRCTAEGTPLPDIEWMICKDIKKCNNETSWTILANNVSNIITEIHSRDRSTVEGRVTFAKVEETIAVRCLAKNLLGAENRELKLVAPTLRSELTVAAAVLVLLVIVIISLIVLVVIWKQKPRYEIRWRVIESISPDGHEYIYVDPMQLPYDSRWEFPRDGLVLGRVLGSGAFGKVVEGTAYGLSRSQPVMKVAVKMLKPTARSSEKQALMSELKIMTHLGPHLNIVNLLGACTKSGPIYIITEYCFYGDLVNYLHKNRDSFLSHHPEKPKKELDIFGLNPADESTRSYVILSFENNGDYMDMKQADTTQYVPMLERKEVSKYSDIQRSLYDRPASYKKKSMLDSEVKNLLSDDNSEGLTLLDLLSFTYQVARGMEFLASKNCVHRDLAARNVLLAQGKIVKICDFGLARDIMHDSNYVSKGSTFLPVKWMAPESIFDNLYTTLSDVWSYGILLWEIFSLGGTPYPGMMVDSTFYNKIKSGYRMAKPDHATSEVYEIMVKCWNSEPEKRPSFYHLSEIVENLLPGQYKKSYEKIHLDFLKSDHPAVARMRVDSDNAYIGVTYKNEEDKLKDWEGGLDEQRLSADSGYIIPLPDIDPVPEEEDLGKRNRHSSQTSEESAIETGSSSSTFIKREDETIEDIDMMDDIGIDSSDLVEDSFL
Protocol text: Inhibitory activity against PDGF-Ra phosphorylation by PDGF-AA stimulation using G292
Format: cell-based
Experimental conditions: > means inhibition at indicated concentration not more than 50%, < and << not less than 50%; read-out: PDGF (E) IC50
Reported endpoint: IC50

Task: Give the value of IC50 reported for the following: COc1cc2ncnc(Oc3ccc(NC(=S)NCCN(C)C)cc3)c2cc1OC [Example 529]
Result: > 100 nM

Task: Give the value of IC50 reported for the following: COc1cc2nccc(Oc3ccc(NC(=O)NCCN4CCCC4)cc3)c2cc1OC [Example 618]
Result: < 10 nM

Task: Give the value of IC50 reported for the following: COc1cc2nccc(Oc3ccc(NC(=S)NC(=O)C(C)(C)Oc4ccc(Cl)cc4)cc3)c2cc1OC [Example 757]
Result: > 100 nM

Task: Give the value of IC50 reported for the following: C=C(C)COC(=O)Nc1ccc(Oc2ccnc3cc(OC)c(OC)cc23)c(C)c1C [Example 406]
Result: < 10 nM

###

Target under test: PDGF-Ra (Homo sapiens, UniProt P16234)
Construct: host or cells: G-292 human osteosarcoma cells
Protocol text: Inhibitory activity against PDGF-Ra phosphorylation by PDGF-AA stimulation using G292
Assay type: cell-based
Experimental conditions: Pharmacological Test Example 1; > means inhibition at indicated concentration not more than 50%, < and << not less than 50%; read-out: PDGF (E) IC50
Field: pIC50. Provide a value for each of the compounds that follow.
pIC50 is a log-scale quantity: -log10 of the concentration expressed in molar.

Task: Give the value of pIC50 reported for the following: COc1cc2nccc(Oc3ccc(NC(=O)OCCSc4ccc(C)cc4)c(C)c3C)c2cc1OC
Result: 7.77

Task: Give the value of pIC50 reported for the following: COc1cc2nccc(Oc3cc(C)c(NC(=O)OCc4ccc(C(C)(C)C)cc4)cc3C)c2cc1OC
Result: 7.24

Task: Give the value of pIC50 reported for the following: COc1cc2nccc(Oc3ccc(NC(=O)OCCCSc4ccc(Cl)cc4C)c(C)c3C)c2cc1OC
Result: 7.80

Task: Give the value of pIC50 reported for the following: COc1cc2nccc(Oc3ccc(NC(=O)OCCCCCCN(C)C)cc3)c2cc1OC
Result: 8.00

Task: Give the value of pIC50 reported for the following: COc1cc2ncnc(Oc3ccc(NC(=O)OC(C)c4cccc(Br)c4)cc3)c2cc1OC (centres unmarked)
Result: 7.89

Task: Give the value of pIC50 reported for the following: CCCC(OC(=O)Nc1cc(C)c(Oc2ccnc3cc(OC)c(OC)cc23)cc1C)c1ccccc1 (centres unmarked)
Result: 7.20

Task: Give the value of pIC50 reported for the following: COc1cc2ncnc(Oc3ccc(NC(=O)OCCCOc4ccccc4F)c(C)c3C)c2cc1OC
Result: 7.96

Task: Give the value of pIC50 reported for the following: CCCCc1ccc(OC(=O)Nc2cc(C)c(Oc3ccnc4cc(OC)c(OC)cc34)cc2C)cc1
Result: 7.21

Task: Give the value of pIC50 reported for the following: COc1cc2nccc(Oc3ccc(NC(=O)OCCN4CCOCC4)cc3)c2cc1OC
Result: 7.96

Task: Give the value of pIC50 reported for the following: COc1cc2nccc(Oc3ccc(NC(=O)OCc4cccc(C)c4)cc3)c2cc1OC
Result: 8.22

Task: Give the value of pIC50 reported for the following: CCCCC(CC)OC(=O)Nc1cc(C)c(Oc2ccnc3cc(OC)c(OC)cc23)cc1C (centres unmarked)
Result: 7.92

Task: Give the value of pIC50 reported for the following: COc1cc2ncnc(Oc3ccc(NC(=O)OCC4CCCC4)c(Cl)c3)c2cc1OC
Result: 7.48
